Attribution: ChEMBL document CHEMBL4619812

Protocol: Unbound intrinsic clearance in rat hepatocytes
Format: ADME, cell-based, Hepatocyte
Measurement Name: CL free (mL/min/kg)

Take a look at these entries with their results.
# Record Smiles, Output Unit, CL free
records = [
    ("C[C@H](C(=O)Nc1ccc(Cl)nc1)C12CC(NC(=O)c3cccc(Cl)c3)(C1)C2", "mL/min/kg", 133),
    ("C[C@H](C(=O)Nc1ccc(F)cc1)C12CC(NC(=O)c3cc(F)cc(Cl)c3)(C1)C2", "mL/min/kg", 441),
    ("CC(C)(C(=O)Nc1ccc(F)cc1)C12CC(NC(=O)c3cccc(Cl)c3)(C1)C2", "mL/min/kg", 197),
    ("C[C@H](C(=O)Nc1ccc(F)cc1)C12CC(NC(=O)c3ccc(F)c(F)c3)(C1)C2", "mL/min/kg", 195),
    ("O=C(Nc1ccc(C2(C(=O)Nc3ccc(F)cc3)CCC2)cc1)c1cccc(Cl)c1", "mL/min/kg", 1935),
]

P. C[C@H](C(=O)Nc1ccc(F)cc1)C12CC(Nc3ncnc4ccccc34)(C1)C2
Q. CC(C)OC(=O)NC12CC([C@H](C)C(=O)Nc3ccc(F)cc3)(C1)C2
Query :: Given the listed items, does P or Q have the lesser reported CL free? Select an item and report its label.
Result :: P
(P: 1494 mL/min/kg, Q: 2925 mL/min/kg)

----------
Tested Target: UniProt P08183
Sequence (P08183 whole entry): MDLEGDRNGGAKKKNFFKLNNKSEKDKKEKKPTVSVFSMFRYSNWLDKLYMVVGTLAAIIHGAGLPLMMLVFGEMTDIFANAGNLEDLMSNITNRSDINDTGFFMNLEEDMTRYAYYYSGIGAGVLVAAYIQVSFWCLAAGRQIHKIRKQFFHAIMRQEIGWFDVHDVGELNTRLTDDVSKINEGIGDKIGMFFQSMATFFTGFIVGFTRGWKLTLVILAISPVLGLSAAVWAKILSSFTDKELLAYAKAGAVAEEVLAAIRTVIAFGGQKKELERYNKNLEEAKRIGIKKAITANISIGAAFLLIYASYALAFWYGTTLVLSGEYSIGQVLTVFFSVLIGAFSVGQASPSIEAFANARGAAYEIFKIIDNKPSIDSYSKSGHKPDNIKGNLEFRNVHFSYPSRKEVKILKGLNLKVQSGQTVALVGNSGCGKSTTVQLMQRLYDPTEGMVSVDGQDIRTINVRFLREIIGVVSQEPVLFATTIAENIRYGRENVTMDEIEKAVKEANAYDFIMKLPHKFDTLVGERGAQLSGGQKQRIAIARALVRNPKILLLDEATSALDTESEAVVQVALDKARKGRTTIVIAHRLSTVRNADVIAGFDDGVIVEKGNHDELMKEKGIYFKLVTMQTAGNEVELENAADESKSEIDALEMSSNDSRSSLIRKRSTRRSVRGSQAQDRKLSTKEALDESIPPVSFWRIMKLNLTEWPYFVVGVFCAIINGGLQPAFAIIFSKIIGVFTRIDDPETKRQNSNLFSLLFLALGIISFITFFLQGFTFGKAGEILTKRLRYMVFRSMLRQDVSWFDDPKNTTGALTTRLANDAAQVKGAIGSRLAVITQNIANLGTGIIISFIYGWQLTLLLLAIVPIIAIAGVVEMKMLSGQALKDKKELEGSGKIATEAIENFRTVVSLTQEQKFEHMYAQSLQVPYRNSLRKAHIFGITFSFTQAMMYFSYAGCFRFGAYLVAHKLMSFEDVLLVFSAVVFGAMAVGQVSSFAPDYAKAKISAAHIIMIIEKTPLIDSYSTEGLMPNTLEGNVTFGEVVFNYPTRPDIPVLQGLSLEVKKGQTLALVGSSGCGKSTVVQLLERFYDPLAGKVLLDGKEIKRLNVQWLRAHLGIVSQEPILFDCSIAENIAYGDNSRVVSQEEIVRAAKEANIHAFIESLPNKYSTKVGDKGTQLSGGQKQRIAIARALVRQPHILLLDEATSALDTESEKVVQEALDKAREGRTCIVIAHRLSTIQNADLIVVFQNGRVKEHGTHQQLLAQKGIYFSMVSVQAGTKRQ
Protocol: Substrate activity at human MDR1 expressed in pig LLC-PK1 cells assessed as efflux ratio of permeability across basolateral to apical over apical to basolateral membrane at 1 mM after 3 hrs by LC/MS/MS analysis
Parameters: dose or concentration left out as unconfirmed
Measurement Name: efflux ratio at 3 h
Answer as a number with no unit attached.

# efflux ratio at 3 h (molecule: `C[C@H](C(=O)Nc1ccc(F)cc1)C12CC(NC(=O)c3ccc(F)c(F)c3)(C1)C2` ) is 1.3

----------
Protocol: Elimination half life in dog
Format: ADME, Canis lupus familiaris
Condition Description: in vivo, read-out: beta t1/2 (converted)
Measurement Name: half-life (h)
Report only the number, with the unit h understood.

# half-life (compound: `C[C@H](C(=O)Nc1ccc(F)cc1)C12CC(NC(=O)c3ccc(F)c(F)c3)(C1)C2` ) is 36

----------
Tested Target: CYP3A4 (Homo sapiens, UniProt P08684)
Sequence (P08684 whole entry): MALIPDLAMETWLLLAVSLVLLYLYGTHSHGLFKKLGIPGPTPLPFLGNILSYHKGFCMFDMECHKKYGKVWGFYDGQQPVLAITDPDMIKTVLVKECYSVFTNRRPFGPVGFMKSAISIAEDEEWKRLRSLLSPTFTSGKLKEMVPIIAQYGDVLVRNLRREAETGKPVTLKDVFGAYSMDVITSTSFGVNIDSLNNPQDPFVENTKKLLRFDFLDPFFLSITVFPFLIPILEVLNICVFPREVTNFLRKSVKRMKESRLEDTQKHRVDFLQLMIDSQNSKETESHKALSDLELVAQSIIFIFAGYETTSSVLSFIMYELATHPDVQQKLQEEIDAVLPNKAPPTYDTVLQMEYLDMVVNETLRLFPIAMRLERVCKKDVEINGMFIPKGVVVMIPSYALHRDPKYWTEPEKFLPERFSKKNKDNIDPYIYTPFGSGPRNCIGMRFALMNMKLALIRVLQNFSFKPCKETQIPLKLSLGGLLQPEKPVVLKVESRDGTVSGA
Protocol: Inhibition of CYP3A4 (unknown origin) assessed as TDI shift ratio
Measurement Name: IC50 shift
Answer as a number with no unit attached.

# IC50 shift (molecule: `C[C@H](C(=O)Nc1ccc(F)cc1)C12CC(NC(=O)c3ccc(F)c(F)c3)(C1)C2` ) is 1

----------
Protocol: Clearance in rat
Type: ADME
Condition Description: in vivo
Measurement Name: clearance (mL/min/kg)

P. C[C@H](C(=O)Nc1ccc(F)cc1)C12CC(NC(=O)c3cccc(Cl)c3)(C1)C2
Q. C[C@H](C(=O)Nc1ccc(F)cc1)C12CC(NC(=O)c3ccc(F)c(F)c3)(C1)C2
Query :: // compare measured clearance, left P , right Q , return larger Select an item and report its label.
Result :: P

----------
Protocol: Unbound intrinsic clearance in rat hepatocytes
Assay type: ADME, cell-based, Hepatocyte
Measurement Name: CL free (mL/min/kg)

# Record Smiles, Measurement Name, Value
rows = [
    ("C[C@H](C(=O)Nc1ccc(F)cc1)C12CC(NC(=O)c3cccc(Cl)n3)(C1)C2", "CL free", 644),
    ("C[C@H](C(=O)Nc1ccc(F)cc1)C12CC(NC(=O)c3ccc(F)c(Cl)c3)(C1)C2", "CL free", 295),
    ("C[C@H](C(=O)Nc1ccc(F)cc1)C12CC(NC(=O)c3cccc(Cl)c3F)(C1)C2", "CL free", 765),
    ("C[C@H](C(=O)Nc1ccc(F)cc1)C12CC(NC(=O)OC3CCCC3)(C1)C2", "CL free", 4457),
]

A. C[C@H](C(=O)Nc1ccc(Cl)cc1)C12CC(NC(=O)c3cccc(Cl)c3)(C1)C2
B. C[C@H](C(=O)Nc1ccc(F)cc1)C12CC(Nc3ncnc4ccc(F)cc34)(C1)C2
Query :: Given the listed items, does A or B have the lesser reported CL free? Select an item and report its label.
Result :: A
(A: 150 mL/min/kg, B: 549 mL/min/kg)
